The measurements presented in this section are drawn from patent US11491155B2.

experiment: Aerosol performance of DPI formulations (Cyclohaler, NGI); type: physicochemical; details: calculated from delivered blend mass and measured blend content; as RPL554 base
Where a name gives a salt, the structure may show the parent alone.
quantity-measured: Calculated RPL554 Content (μg) per capsule (A) (µg)

compound	numeric-result
COc1cc2c(cc1OC)-c1c/c(=N\c3c(C)cc(C)cc3C)n(CCNC(N)=O)c(=O)n1CC2 [Ethanesulfonate, RPL554 ethanesulfonate]	162.00
COc1cc2c(cc1OC)-c1c/c(=N\c3c(C)cc(C)cc3C)n(CCNC(N)=O)c(=O)n1CC2 [Methanesulfonate, RPL554 methanesulfonate]	164.72
COc1cc2c(cc1OC)-c1c/c(=N\c3c(C)cc(C)cc3C)n(CCNC(N)=O)c(=O)n1CC2 [Sulfate, RPL554 sulfate]	120.61

----------
assay: Physico-chemical characteristics of salt candidates: solubility in water, pH of aqueous suspension/solution, form post water maturation; conditions: water
quantity-measured: solubility (µg/mL)

molecule	numeric-result
COc1cc2c(cc1OC)-c1c/c(=N\c3c(C)cc(C)cc3C)n(CCNC(N)=O)c(=O)n1CC2 [Benzenesulfonate, RPL554 benzenesulfonate]	1470

----------
Assay: Solubility of RPL554 salts in saline solutions, water and aqueous buffer solutions at 25° C. (HPLC)
Assay type: physicochemical
Conditions: 1.1% w/w saline, saline or isotonic, thermodynamic from solid, 24 hours, read-out: Solubility as RPL554 (mg/ml) in 1.1 w/w % Saline
Method: The behaviour of salts of RPL554 were examined under the following conditions: • Phosphate buffered to pH 3.5 in saline, 0.9% w/w at 25° C. • Acetate buffered to pH 4.5 in saline, 0.9% w/w at 25° C. • Citro-Phosphate buffered to pH 4.5 in saline, 0.9% w/w at 25° C. • Phosphate buffered to pH 6.5 in saline, 0.9% w/w at 25° C. • Saline, 0.7, 0.9 and 1.1% w/w at 25° C. • Deionised water at 25° C. […]

compound	unit-abbreviation	solubility at 24 h
COc1cc2c(cc1OC)-c1c/c(=N\c3c(C)cc(C)cc3C)n(CCNC(N)=O)c(=O)n1CC2 [Benzenesulfonate, RPL554 benzenesulfonate]	mg/mL	2.94

----------
experiment: Solubility of RPL554 and salts in pMDI propellant systems; format: physicochemical; conditions: in HFA 134 with Ethanol/Tween
Where a name gives a salt, the structure may show the parent alone.

molecule	unit-abbreviation	Solubility RPL554
COc1cc2c(cc1OC)-c1c/c(=N\c3c(C)cc(C)cc3C)n(CCNC(N)=O)c(=O)n1CC2 [Sulfate, RPL554 sulfate]	µg/g	73.19
COc1cc2c(cc1OC)-c1c/c(=N\c3c(C)cc(C)cc3C)n(CCNC(N)=O)c(=O)n1CC2 [Methanesulfonate, RPL554 methanesulfonate]	µg/g	298.07
COc1cc2c(cc1OC)-c1c/c(=N\c3c(C)cc(C)cc3C)n(CCNC(N)=O)c(=O)n1CC2 [Benzenesulfonate, RPL554 benzenesulfonate]	µg/g	90.57
COc1cc2c(cc1OC)-c1c/c(=N\c3c(C)cc(C)cc3C)n(CCNC(N)=O)c(=O)n1CC2 [Ethane-1,2-disulfonate, RPL554 ethane-1,2-disulfonate]	µg/g	5
COc1cc2c(cc1OC)-c1c/c(=N\c3c(C)cc(C)cc3C)n(CCNC(N)=O)c(=O)n1CC2 [p-Toluenesulfonate, RPL554 p-toluenesulfonate]	µg/g	152.85
COc1cc2c(cc1OC)-c1c/c(=N\c3c(C)cc(C)cc3C)n(CCNC(N)=O)c(=O)n1CC2 [Ethanesulfonate, RPL554 ethanesulfonate]	µg/g	266.59
